System: db/db mice
Run Description: Evaluation of glucose levels in db/db mice
Assay type: in vivo
Condition Summary: Mus musculus, 168 h, 30 mg/kg oral gavage daily for 7 days, 100% = glucose not different from lean values, read-out: Glucose Normalisation
Each item that follows carries a reported inhibition in vivo at 30 mg/kg.
Number first, unit second.

>>> measured_result("Cc1oc(C2CCCCC2)nc1CCOc1ccc(CC(C)(Oc2cccc(F)c2)C(=O)O)cc1 (centres unmarked)")
"97%"
>>> measured_result("Cc1oc(-c2ccccc2)nc1CCCc1ccc(CC(C)(Oc2ccccc2)C(=O)O)s1 (centres unmarked)")
"71%"
>>> measured_result("Cc1oc(C2CCCCC2)nc1CCOc1ccc(CC(C)(Oc2ccc(F)c(F)c2)C(=O)O)cc1 (centres unmarked)")
"81%"
>>> measured_result("Cc1oc(C2(C)CCCCC2)nc1CCOc1ccc(CC(C)(Oc2ccccc2)C(=O)O)cc1 (centres unmarked)")
"95%"
>>> measured_result("Cc1oc(-c2cccs2)nc1CCOc1ccc(CC(C)(Oc2ccc(C(C)(C)C)cc2)C(=O)O)cc1 (centres unmarked)")
"112%"

inhibition in vivo at 30 mg/kg in this record for Cc1oc(-c2cccs2)nc1CCOc1ccc(CC(C)(Oc2cccc(F)c2)C(=O)O)cc1 (centres unmarked) : 85%

inhibition in vivo at 30 mg/kg in this record for Cc1ccc(OC(C)(Cc2ccc(OCCc3nc(C4CCCCC4)oc3C)cc2)C(=O)O)cc1C (centres unmarked) : 84%

inhibition in vivo at 30 mg/kg in this record for Cc1ccc(OC(C)(Cc2ccc(OCCc3nc(-c4cccs4)oc3C)cc2)C(=O)O)cc1 (centres unmarked) : 103%
